Test system: MDA-MB-231
EXPERIMENT DESCRIPTION: NCI tumour cell line growth inhibition, 48 h
Active and inactive are the calls of the source. Cut-off read from the data, not from the text of the source: active = GI50 up to about 1.1 µM and inactive = higher.
Mark one answer only. Choices: TRUE = active, FALSE = inactive

So what was the verdict on "NCCCN(CCCN(C(=O)Nc1ccccc1)c1ccccc1)C(=O)Nc1ccccc1" in this test?
FALSE

Could you kindly confirm the outcome this assay logged for COc1ccc(N2C(=O)/C(=C\c3cccc(Oc4ccccc4)c3)S(=O)(=O)C2c2ccccc2)cc1 (centres undefined) ?
FALSE

Answer briefly: the call reported for "COc1cccc(OCC(=N/NC(=O)c2ccncc2)/N=C/c2cccnc2)c1" in this assay.
FALSE

// param item: "C=CCO/N=C/c1cc(/N=C(/S)c2ccoc2C)ccc1Cl" ; yields the recorded call
FALSE

Recorded call for "Cn1c(=S)c2nc(SCc3cccnc3)[nH]c2n(C)c1=O" ?
FALSE

How did this test come out for CSC1SCC2C(=O)N(C)C(C(C)C)C(=O)OCC(NC(=O)c3cnc4ccccc4n3)C(=O)NC(C)C(=O)N(C)C1C(=O)N(C)C(C(C)C)C(=O)OCC(NC(=O)c1cnc3ccccc3n1)C(=O)NC(C)C(=O)N2C (centres undefined) ?
TRUE

# outcome recorded in this test, key = "COc1ccc2cc(CNCCCN3CCN(CCCNCc4ccc5cc(OC)ccc5c4)CC3)ccc2c1"
FALSE

Kindly provide the recorded test outcome for the following compound: "N=C1N(S(=O)(=O)c2ccccc2)[C@@H](Cc2ccccc2)[C@H](c2ccccc2)C1(c1ccccc1)c1ccccc1"
FALSE

In this assay, the call recorded for "CCOC(=O)C(C(=O)c1ccccc1C(=O)OC)=P(c1ccccc1)(c1ccccc1)c1ccccc1" was what?
FALSE

Fill in: this test's call for COc1cccc(C2c3cc4c(cc3OC(C)(N3CCCC3)C2C)OCO4)c1O (centres undefined) is ___
FALSE

How was CC(Br)C(=O)NN1C2=C(Nc3ccccc31)c1cccc3cccc2c13 (centres undefined) classified in this test?
FALSE

Record lookup: outcome of this test for "COc1cc(OC)cc(Oc2nc3ccccc3nc2C(=O)O)c1" ?
FALSE

Per the assay record, what outcome was assigned to CS(=O)(=O)CCC1CCC(=O)O1 (centres undefined) ?
FALSE

Record lookup: outcome of this test for "CC1(C)C(=O)N(O)C(C)(C)N1N=O" ?
FALSE

Each compound tested received a call. Report the one for "CCOC(=O)N1c2ccccc2N(C(=O)OCC)C1CC(=O)/C=C/c1ccccc1" .
FALSE

Per the assay record, what outcome was assigned to CN1c2ccc(O)c(O)c2-c2cc(O)cc3c2C1CCC3 (centres undefined) ?
FALSE

# outcome recorded in this test, key = "O=C1c2ccccc2-c2nc(-c3cccs3)cc3c2c1nc1ccccc13"
FALSE

Hi, do you know how "CCCCC(=O)Oc1ccc2c(C)cc(=O)oc2c1" came out in this test?
FALSE

Status in this test for "COc1c(O)cc2c3c(ccnc13)NC=C2" ?
FALSE

Each compound tested received a call. Report the one for "COc1ccc(/C=C2\CCC/C(=C\c3ccc(O)c(CN4CCCCC4)c3)C2=O)cc1" .
FALSE

Record lookup: outcome of this test for COc1ccc(C2CC(c3cc4c(C)c(C(=O)c5ccccc5)oc4cc3O)=Nc3ccccc3S2)cc1OC (centres undefined) ?
FALSE

State the result this test recorded for "O=C(CSC1=NC(=O)C2(NN1)c1ccccc1-c1ccccc12)NC(=S)Nc1ccccc1" .
FALSE

Please share the test call associated with "CN(C)c1ccc(/C=C/C(=O)CC(=O)/C=C/c2ccc(N(C)C)cc2)cc1" .
FALSE

Hello, I am checking results. What call was entered for NC1CC(=O)c2c1sc(Cl)c2Cl (centres undefined) ?
FALSE

Just curious, what result did "O=C(O)CCc1nc(-c2ccccc2)c(-c2ccccc2)o1" get here?
FALSE

How did this test come out for "C[C@]12C(=O)OC[C@H](c3ccccc3)N1C(=O)N(Cc1ccccc1)[C@@H]2CO" ?
FALSE

What did the test return for "O=P1(Cc2ccccc2)c2ccccc2-c2ccccc21" ?
FALSE

What was the test verdict on "C[C@]12CC[C@@H]3c4ccc(O)cc4CC[C@H]3[C@@H]1CC[C@@H]2OC(=O)CCc1ccccc1" ?
FALSE

Hello, I am checking results. What call was entered for CC(C)(C)OC(=O)NC(CS(=O)(=O)O)C(=O)O (centres undefined) ?
FALSE

// outcome(item) with item = "CN1CCN(c2ccc3nc(C4=C(O)C(=O)[C@@H]5C(=C4O)N=C(CO)N5C)[nH]c3n2)CC1"
FALSE

Query: recorded result category for NC(=O)C(NC=O)c1ccccc1 (centres undefined) in this test
FALSE

Could you kindly confirm the outcome this assay logged for "COC(=O)c1cccc(COc2ccc([N+](=O)[O-])cc2Cl)c1" ?
FALSE

How was "O=C1N/N=C\Nc2ccc(cc2)S(=O)(=O)c2ccc(cc2)/N=C\NNC1=O" classified in this test?
FALSE

What classification did "O=C(Nc1nc(C23CC4CC(CC(C4)C2)C3)cs1)c1c(O)c2ccccc2[nH]c1=O" end up with in this test?
FALSE

Identify the outcome logged in this assay for the compound shown: CC1(C)NC(C(=O)c2ccccc2)=[N+]([O-])C1(O)c1ccccc1 (centres undefined)
FALSE

Hi team, can someone confirm the assay call for CC1(C)CN(CC(=O)O)CC(Cc2ccc(OCC(=O)O)cc2)N(CC(=O)O)CC(C)(C)SS1 (centres undefined) ?
FALSE

For "C=C1[C@H](OCC(C)C)[C@@H](OCC(C)C)[C@@H](O)C(C)(C)/C=C/[C@H](C)C(=O)[C@@]2(O)C[C@H](C)[C@H](O)[C@@H]2[C@H]1OCC(C)C" , which call appears in the assay record?
FALSE

Could you check what this test reported for O=C(CC(C(=O)c1ccoc1)c1ccco1)c1ccco1 (centres undefined) ?
FALSE

Which outcome did this test record for the compound "O=S(=O)(O)Oc1cc2c(c(OS(=O)(=O)O)c1)C[C@H](OS(=O)(=O)O)[C@@H](c1ccc(OS(=O)(=O)O)c(OS(=O)(=O)O)c1)O2" ?
FALSE

Reference source for all entries: ChEMBL document CHEMBL1201862
